Origin of the recorded values: patent US20240239755A1

Test system: Amaranthus retroflexus (AMARE)
measurement protocol: Herbicidal post-emergence action, 320 g/ha, AMARE
Format: in vivo
condition: visual grading after ca. 3 weeks
herbicidal effect AMARE values by entry
# unit: % | format: bare number

CCOC(=O)Oc1c(C)nn(C)c(=O)c1Oc1ccccc1Cl    100
CCOC(=O)Oc1c(C)nn(C)c(=O)c1Oc1cc(F)ccc1Br    90
CCOC(=O)Oc1c(C)nn(C)c(=O)c1Oc1cccc(F)c1C1CC1    90
Cc1nn(C)c(=O)c(Oc2ccc(Cl)cc2Cl)c1OC(=O)C1CCC1    100
Cc1nn(C)c(=O)c(Oc2ccccc2C(F)(F)F)c1O    90

With those in mind, consider the next compound.
GET /value?item= `CC(=O)Oc1c(C)nn(C)c(=O)c1Oc1ccccc1OC(F)F` &field=herbicidal effect AMARE returns 90

###

Tested on: Matricaria inodora (MATIN)
measurement protocol: Herbicidal post-emergence action, 320 g/ha, MATIN
Format: in vivo
condition: visual grading after ca. 3 weeks
metric name: herbicidal effect MATIN (%)
# unit: % | format: bare number

CCOC(=O)Oc1c(C)nn(C)c(=O)c1Oc1ccccc1Cl    100
CCOC(=O)Oc1c(C)nn(C)c(=O)c1Oc1cc(F)ccc1C1CC1    90

With those in mind, consider the next molecule.
Reading of herbicidal effect MATIN for `Cc1nn(C)c(=O)c(Oc2ccc(Cl)cc2Cl)c1OC(=O)C1CCC1` with Matricaria inodora (MATIN): 90

###

herbicidal effect ABUTH values by entry
Tested on: Abutilon theophrasti (ABUTH)
measurement protocol: Herbicidal post-emergence action, 320 g/ha, ABUTH
Assay type: in vivo
condition: visual grading after ca. 3 weeks
# unit: % | format: bare number

Reading of herbicidal effect ABUTH for `Cc1nn(C)c(=O)c(Oc2ccc(F)cc2C2CC2)c1O` with Abutilon theophrasti (ABUTH): 90

Reading of herbicidal effect ABUTH for `CCOC(=O)Oc1c(C)nn(C)c(=O)c1Oc1cccc(F)c1C1CC1` with Abutilon theophrasti (ABUTH): 90

Reading of herbicidal effect ABUTH for `Cc1nn(C)c(=O)c(Oc2cc(Cl)ccc2Cl)c1O` with Abutilon theophrasti (ABUTH): 100

Reading of herbicidal effect ABUTH for `CC(=O)Oc1c(C)nn(C)c(=O)c1Oc1ccccc1OC(F)(F)F` with Abutilon theophrasti (ABUTH): 90

Reading of herbicidal effect ABUTH for `Cc1nn(C)c(=O)c(Oc2ccccc2C(C)C)c1O` with Abutilon theophrasti (ABUTH): 90

Reading of herbicidal effect ABUTH for `Cc1nn(C)c(=O)c(Oc2cc(F)c(F)cc2C2CC2)c1O` with Abutilon theophrasti (ABUTH): 90

Reading of herbicidal effect ABUTH for `CC(=O)Oc1c(C)nn(C)c(=O)c1Oc1ccccc1OC(F)F` with Abutilon theophrasti (ABUTH): 90

###

herbicidal effect AMARE values by entry
Test system: Amaranthus retroflexus (AMARE)
measurement protocol: Herbicidal pre-emergence action, 320 g/ha, AMARE
Format: in vivo
condition: visual grading after ca. 3 weeks
Description: Seeds of mono- and dicotyledonous weed plants were sown in plastic pots (double sowings with one species of mono- and one species of dicotyledonous weed plants per pot), in sandy loam, and covered with soil. […]
Answer with the figure and its unit, nothing else.

Cc1nn(C)c(=O)c(Oc2cc(Cl)ccc2Br)c1OC(=O)C(C)C [Example I-092]    90%
Cc1nn(C)c(=O)c(Oc2ccccc2C2CC2)c1O [Example I-014]    90%
Cc1nn(C)c(=O)c(Oc2cc(Cl)ccc2Cl)c1OC(=O)C(C)C [Example I-095]    90%
Cc1nn(C)c(=O)c(Oc2cc(Cl)ccc2Br)c1O [Example I-091]    90%
CC(=O)Oc1c(C)nn(C)c(=O)c1Oc1ccccc1C(F)(F)F [Example I-030]    90%

Reading of herbicidal effect AMARE for CCOC(=O)Oc1c(C)nn(C)c(=O)c1Oc1ccccc1C1CC1 [Example I-012] with Amaranthus retroflexus (AMARE): 100%

Reading of herbicidal effect AMARE for Cc1nn(C)c(=O)c(Oc2ccccc2Cl)c1O [Example I-003] with Amaranthus retroflexus (AMARE): 90%

Reading of herbicidal effect AMARE for Cc1nn(C)c(=O)c(Oc2ccc(F)cc2C2CC2)c1O [Example I-033] with Amaranthus retroflexus (AMARE): 90%
